- tested_system: recombinant BRD4 BD1 (Homo sapiens, UniProt O60885)
- Construct: for recombinant BRD4 BD1 and BRD4 BD2 proteins
- test_details: Competitive fluorescence-polarization (FP) binding assay, BRD4 BD1; note: probe 1.5 nM
- measurement_parameters: competitive FP assay; protein 10 nM, probe […]; read-out: IC50 (nM) BRD4 BD1
Below: a set of entries, each annotated with reported log10 of IC50.
All values: log10 IC50 [nM].

Examples with answers:
compound_smiles	log10 of IC50
COc1cc2c(cc1-c1c(C)noc1C)[nH]c1nc(C)nc(Nc3c(C4CC4)nn(C)c3C3CC3)c12	1.28
COc1cc2c(cc1-c1c(C)noc1C)[nH]c1nc(C)nc(Nc3c(C(C)C)nn(C)c3C(C)C)c12	0.95
COc1cc2c(cc1-c1c(C)noc1C)[nH]c1nc(C)nc(Nc3cc(C4CC4)nn3C3CNC3)c12	0.94

Problem: Entry under review: COc1cc2c(cc1-c1c(C)noc1C)[nH]c1nc(C)nc(Nc3cccc(C(F)(F)F)c3)c12 . Reported log10 of IC50?
Result: 2.93

Problem: Entry under review: COc1cc2c(cc1-c1c(C)noc1C)[nH]c1nc(C)nc(Nc3cccc4nc(C)ccc34)c12 . Reported log10 of IC50?
Result: 1.40

Problem: Entry under review: CCn1cc(Nc2nc(C)nc3[nH]c4cc(-c5c(C)noc5C)c(OC)cc4c23)c(C(C)C)n1 . Reported log10 of IC50?
Result: 1.12

Problem: Entry under review: COc1cc2c(cc1-c1c(C)noc1C)[nH]c1nc(C)nc(Nc3cn(C)c4ncccc34)c12 . Reported log10 of IC50?
Result: 1.15

Problem: Entry under review: COc1cc2c(cc1-c1c(C)noc1C)[nH]c1nc(C)nc(Nc3c(C#N)cnn3C)c12 . Reported log10 of IC50?
Result: 2.15

Problem: Entry under review: CCc1nn(CC)c(CC)c1Nc1nc(C)nc2[nH]c3cc(-c4c(C)noc4C)c(OC)cc3c12 . Reported log10 of IC50?
Result: 1.20

Problem: Entry under review: COc1cc2c(cc1-c1c(C)noc1C)[nH]c1nc(C)nc(Nc3cccc4c3ccn4C)c12 . Reported log10 of IC50?
Result: 1.15

Problem: Entry under review: COc1cc2c(cc1-c1c(C)noc1C)[nH]c1nc(C)nc(Nc3cn(C)cn3)c12 . Reported log10 of IC50?
Result: 2.08

Problem: Entry under review: COc1cc2c(cc1-c1c(C)noc1C)[nH]c1nc(C)nc(Nc3cn(C)nc3C3CCC3)c12 . Reported log10 of IC50?
Result: 1.04

Problem: Entry under review: COc1cc2c(cc1-c1c(C)noc1C)[nH]c1nc(C)nc(Nc3nn(C)c4c3CCCC4)c12 . Reported log10 of IC50?
Result: 0.70

Problem: Entry under review: COc1cc2c(cc1-c1c(C)noc1C)[nH]c1nc(C)nc(Nc3cnn4c3CCC4)c12 . Reported log10 of IC50?
Result: 1.60

Problem: Entry under review: COc1cc2c(cc1-c1c(C)noc1C)[nH]c1nc(C)nc(NC3CCCCC3)c12 . Reported log10 of IC50?
Result: 2.66

Problem: Entry under review: COc1cc2c(cc1-c1c(C)noc1C)[nH]c1nc(C)nc(Nc3c(C)nn4ccccc34)c12 . Reported log10 of IC50?
Result: 1.00

Problem: Entry under review: COc1cc2c(cc1-c1c(C)noc1C)[nH]c1nc(C)nc(Nc3cc(C4CC4)nn3CCN(C)C)c12 . Reported log10 of IC50?
Result: 1.15

Problem: Entry under review: COc1cc2c(cc1-c1c(C)noc1C)[nH]c1nc(C)nc(Nc3scnc3C(C)(C)C)c12 . Reported log10 of IC50?
Result: 1.39

Problem: Entry under review: COc1cc2c(cc1-c1c(C)noc1C)[nH]c1nc(C)nc(Nc3cc(C(F)(F)F)nn3C(C)C)c12 . Reported log10 of IC50?
Result: 1.69

Problem: Entry under review: COc1cc2c(cc1-c1c(C)noc1C)[nH]c1nc(C)nc(Nc3ccnc4ccccc34)c12 . Reported log10 of IC50?
Result: 2.22
